- Tested on: ROCK2 (rat)
- Assay summary: radiometric filter-binding kinase assay
- Experimental setup: compound 100.0 µM; accession and sequence are those of the human protein
Property label: residual activity (%)
Response body: numeric value in %, unit text excluded.

Request: // residual activity lookup, key: `Cc1cc(N=Nc2cc(S(=O)(=O)O)c(C)cc2C)c(N)cc1O`
Response: 105

Request: Now the compound `N#Cc1c(O)c2c(-c3ccc(-c4ccccc4O)cc3)csc2[nH]c1=O`
Response: 75

Request: Also `Cc1ccc2c(c1)C(=O)[C@@]1(O)CCN(c3ccccc3)C1=N2` ?
Response: 76

Request: Quick one: `COC(=O)/C=C/C(=O)OC`
Response: 89
